# measured on: BACE1 (Homo sapiens (Human))
# test method notes: In vitro BACE1 cell-based assay (Aβ40 in conditioned medium, HTRF)
# condition info: Aβ40 in conditioned medium of cells expressing APP, 24 h
# Sequence (P56817 46-501, species assumed): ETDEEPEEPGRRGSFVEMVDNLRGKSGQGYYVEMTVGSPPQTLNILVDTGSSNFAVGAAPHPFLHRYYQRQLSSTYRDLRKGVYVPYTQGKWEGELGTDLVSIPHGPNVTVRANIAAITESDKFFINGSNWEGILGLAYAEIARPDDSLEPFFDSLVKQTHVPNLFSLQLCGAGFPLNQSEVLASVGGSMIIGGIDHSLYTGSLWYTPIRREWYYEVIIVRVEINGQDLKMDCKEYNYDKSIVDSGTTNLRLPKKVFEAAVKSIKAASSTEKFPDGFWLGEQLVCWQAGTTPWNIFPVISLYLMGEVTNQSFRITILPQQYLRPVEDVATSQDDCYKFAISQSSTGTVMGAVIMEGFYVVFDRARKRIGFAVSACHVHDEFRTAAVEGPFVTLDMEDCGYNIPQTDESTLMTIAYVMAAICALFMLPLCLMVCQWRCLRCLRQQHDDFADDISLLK
observed property: pIC50
Convention used: pIC50 is expressed as -log10 of the molar concentration.

- compound structure: "C[C@]1(c2cc(/C=C(\\F)c3cnc(Cl)cn3)ccc2F)N=C(N)OC[C@@H]1OCC(F)(F)F"
  measured on: "BACE1 (Homo sapiens (Human))"
  numeric readout: 7.05

# input compound: `C[C@@]1(c2cc(/C=C(\F)c3cnc(C#N)cn3)ccc2F)CO[C@@](C)(C(F)(F)F)C(N)=N1` ; wanted: its pIC50
6.89

# input compound: `C[C@@]1(c2cc(/C=C(\F)c3ccc(Cl)cn3)ccc2F)CO[C@@](C)(C(F)(F)F)C(N)=N1` ; wanted: its pIC50
6.16

# input compound: `NC1=N[C@@](c2cc(/C=C(\F)c3ccc(Br)cn3)ccc2F)(C(F)F)[C@H]2C[C@H]2O1` ; wanted: its pIC50
6.02

# input compound: `C[C@]1(c2cc(/C=C(\F)c3ccc(C#N)cn3)ccc2F)N=C(N)OC[C@@H]1OCC(F)(F)F` ; wanted: its pIC50
7.85

# input compound: `C[C@]1(c2cc(/C=C(\F)c3cnc(C#N)cn3)ccc2F)N=C(N)OC[C@@H]1OCC(F)(F)F` ; wanted: its pIC50
7.57

====

# measured on: human recombinant BACE2 (Homo sapiens (Human))
# Sequence (Q9Y5Z0 63-518): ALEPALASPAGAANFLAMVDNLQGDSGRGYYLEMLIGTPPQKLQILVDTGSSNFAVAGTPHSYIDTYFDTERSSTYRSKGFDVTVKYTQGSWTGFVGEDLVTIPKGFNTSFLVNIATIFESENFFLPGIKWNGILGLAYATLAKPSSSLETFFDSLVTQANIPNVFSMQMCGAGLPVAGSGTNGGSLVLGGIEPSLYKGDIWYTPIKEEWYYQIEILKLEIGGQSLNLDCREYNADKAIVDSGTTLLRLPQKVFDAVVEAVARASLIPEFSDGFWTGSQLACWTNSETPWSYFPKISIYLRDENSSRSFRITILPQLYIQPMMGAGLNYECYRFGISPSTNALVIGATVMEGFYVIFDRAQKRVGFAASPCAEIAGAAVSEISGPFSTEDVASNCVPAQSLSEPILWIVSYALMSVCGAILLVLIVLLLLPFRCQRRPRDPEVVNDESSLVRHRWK
# test method notes: In vitro enzymatic BACE2 FRET assay
# condition info: pH 4.5, read-out: BACE2 Enzyme IC50
observed property: IC50 (µM)
Give just the number in µM; leave the unit off.

# input molecule: C[C@@]1(c2cc(/C=C(\F)c3ccc(C#N)cn3)ccc2F)CO[C@@](C)(C(F)(F)F)C(N)=N1 [Example 104] ; wanted: its IC50
0.095

# input molecule: C#CCOc1cnc(/C(F)=C/c2ccc(F)c([C@@]3(C)N=C(N)OC[C@@H]3OCC(F)(F)F)c2)cn1 [Example 111] ; wanted: its IC50
16

# input molecule: C[C@@]1(c2cc(/C=C(\F)c3cnc(OCC(F)(F)C(F)F)cn3)ccc2F)CO[C@@](C)(C(F)(F)F)C(N)=N1 [Example 106] ; wanted: its IC50
1.59

====

The entries below are paired with their reported pIC50.
# measured on: human recombinant BACE2 (Homo sapiens (Human))
# test method notes: In vitro enzymatic BACE2 FRET assay
# condition info: pH 4.5, read-out: BACE2 Enzyme IC50
Convention used: pIC50 is expressed as -log10 of the molar concentration.

- compound: "C[C@]1(c2cc(/C=C(\\F)c3ccc(C#N)cn3)ccc2F)N=C(N)OCC1(F)F [Example 114]"
  pIC50: 5.56
- compound: "C[C@@]1(c2cc(/C=C(\\F)c3cnc(C#N)cn3)ccc2F)CO[C@@](C)(C(F)(F)F)C(N)=N1 [Example 105]"
  pIC50: 6.56
- compound: "C[C@]1(c2cc(/C=C(\\F)c3cnc(Cl)cn3)ccc2F)N=C(N)OC[C@@H]1OCC(F)(F)F [Example 110]"
  pIC50: 5.82

# input compound: C[C@]1(c2nc(/C=C(\F)c3ccc(C#N)cn3)ccc2F)N=C(N)OCC1(F)F [Example 116] ; wanted: its pIC50
4.94

# input compound: C#CCOc1cnc(/C(F)=C/c2ccc(F)c([C@@]3(C)N=C(N)OCC3(F)F)c2)cn1 [Example 115] ; wanted: its pIC50
5.23

# input compound: C#CCOc1cnc(/C(F)=C/c2ccc(F)c([C@]3(C)CO[C@@](C)(C(F)(F)F)C(N)=N3)c2)cn1 [Example 107] ; wanted: its pIC50
6.43

====

# measured on: BACE1 (Homo sapiens (Human))
# test method notes: In vitro enzymatic BACE1 FRET assay
# Assay type: biochemical
# condition info: pH 4.5, read-out: BACE1 Enzyme IC50
# Description: In Vitro Enzymatic BACE1 and BACE2 FRET (Fluorescence Resonance Energy Transfer) Assays The cDNAs for both human recombinant BACE1 and 2 with C-terminal 6-His Tags were cloned into transient protein expression vectors, which were subsequently transfected into mammalian cell lines. […] The FRET assay was terminated by the addition of tris buffer, which raised the pH to neutrality, and the fluorescence was determined. […]
# Sequence (P56817 46-501): as the sequence (P56817 46-501, species assumed) above
observed property: pIC50
Convention used: pIC50 is expressed as -log10 of the molar concentration.

Example entries and their recorded answers appear below.
- compound: "C[C@]1(c2cc(/C=C(\\F)c3ccc(C#N)cn3)ccc2F)N=C(N)OC[C@@H]1OCC(F)(F)F [Example 109]"
  measured on: "BACE1 (Homo sapiens (Human))"
  numeric readout: 6.90
- compound: "C[C@@]1(c2cc(/C=C(\\F)c3cnc(C#N)cn3)ccc2F)CO[C@@](C)(C(F)(F)F)C(N)=N1 [Example 105]"
  measured on: "BACE1 (Homo sapiens (Human))"
  numeric readout: 7.34
- compound: "C#CCOc1cnc(/C(F)=C/c2ccc(F)c([C@@]3(C)N=C(N)OCC3(F)F)c2)cn1 [Example 115]"
  measured on: "BACE1 (Homo sapiens (Human))"
  numeric readout: 6.55

Here is the next item to consider.
// lookup pIC50 | system=BACE1 (Homo sapiens (Human)) | key= C[C@@]1(c2cc(/C=C(\F)c3cnc(Cl)cn3)ccc2F)CO[C@@](C)(C(F)(F)F)C(N)=N1 [Example 108]
6.93

====

# measured on: UniProt P56817
# test method notes: In vitro enzymatic BACE1 FRET assay
# Type: biochemical
# condition info: pH 4.5, read-out: BACE1 Enzyme IC50
Classify: True when IC50 is strictly less than 0.3 µM; False when IC50 is not.

- compound: "C[C@@]1(c2nc(/C=C(\\F)c3ccc(C#N)cn3)ccc2F)CO[C@@](C)(C(F)(F)F)C(N)=N1 [Example 117]"
  discrete label: "True"

Strictly below 0.3 µM: is that where IC50 of C[C@]1(c2cc(/C=C(\F)c3cnc(C#N)cn3)ccc2F)N=C(N)OC[C@@H]1OCC(F)(F)F [Example 112] sits?
True

Strictly below 0.3 µM: is that where IC50 of C#CCOc1cnc(/C(F)=C/c2ccc(F)c([C@@]3(C)N=C(N)OC[C@@H]3OCC(F)(F)F)c2)cn1 [Example 111] sits?
True

Strictly below 0.3 µM: is that where IC50 of C[C@@]1(c2cc(/C=C(\F)c3ccc(Cl)cn3)ccc2F)CO[C@@](C)(C(F)(F)F)C(N)=N1 [Example 103] sits?
True

Strictly below 0.3 µM: is that where IC50 of C[C@]1(c2cc(/C=C(\F)c3cnc(Cl)cn3)ccc2F)N=C(N)OC[C@@H]1OCC(F)(F)F [Example 110] sits?
False

Strictly below 0.3 µM: is that where IC50 of C[C@]1(c2cc(/C=C(\F)c3ccc(C#N)cn3)ccc2F)N=C(N)OCC1(F)F [Example 114] sits?
True

Strictly below 0.3 µM: is that where IC50 of NC1=N[C@@](c2cc(/C=C(\F)c3ccc(Cl)cn3)ccc2F)(C(F)F)[C@H]2C[C@H]2O1 [Example 101] sits?
False

====

# measured on: BACE1 (Homo sapiens (Human), UniProt P56817)
# test method notes: In vitro enzymatic BACE1 FRET assay
# Assay type: biochemical
# condition info: pH 4.5, read-out: BACE1 Enzyme IC50
pIC50: −log10 of the molar value.
Binary call on pIC50: TRUE from 7 upward, FALSE beneath that.

Some entries whose results are on file:
- compound structure: "NC1=N[C@@](c2cc(/C=C(\\F)c3ccc(Br)cn3)ccc2F)(C(F)F)[C@H]2C[C@H]2O1"
  discrete label: "FALSE"
- compound structure: "C[C@]1(c2nc(/C=C(\\F)c3ccc(C#N)cn3)ccc2F)N=C(N)OCC1(F)F"
  discrete label: "FALSE"
- compound structure: "C#CCOc1cnc(/C(F)=C/c2ccc(F)c([C@]3(C)CO[C@@](C)(C(F)(F)F)C(N)=N3)c2)cn1"
  discrete label: "TRUE"
- compound structure: "C[C@@]1(c2cc(/C=C(\\F)c3ccc(C#N)cn3)ccc2F)CO[C@@](C)(C(F)(F)F)C(N)=N1"
  discrete label: "TRUE"
- compound structure: "CC#CCOc1cnc(/C(F)=C/c2ccc(F)c([C@@]3(C)N=C(N)OC[C@@H]3OCC(F)(F)F)c2)cn1"
  discrete label: "TRUE"

Now consider a different compound.
pIC50 >= 7 for `C[C@@]1(c2cc(/C=C(\F)c3cnc(OCC(F)(F)C(F)F)cn3)ccc2F)CO[C@@](C)(C(F)(F)F)C(N)=N1` ?
FALSE

====

# measured on: Recombinant CatD (Homo sapiens (Human), UniProt P07339)
# Sequence (P07339 65-412): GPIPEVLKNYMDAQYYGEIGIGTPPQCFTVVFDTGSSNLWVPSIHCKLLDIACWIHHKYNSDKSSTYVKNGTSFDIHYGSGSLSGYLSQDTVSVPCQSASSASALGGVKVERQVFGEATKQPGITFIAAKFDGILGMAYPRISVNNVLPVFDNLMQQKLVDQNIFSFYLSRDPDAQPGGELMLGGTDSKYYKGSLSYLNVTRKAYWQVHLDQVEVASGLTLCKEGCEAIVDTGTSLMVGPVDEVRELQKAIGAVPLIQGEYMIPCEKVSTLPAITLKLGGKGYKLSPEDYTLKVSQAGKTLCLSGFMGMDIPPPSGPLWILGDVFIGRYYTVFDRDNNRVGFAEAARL
# test method notes: In vitro enzymatic Cathepsin D (CatD) FRET assay
# condition info: pH 3.5, read-out: CatD Enzyme IC50
Classify: fulfilled when IC50 is strictly less than 200 µM; not fulfilled when IC50 is not.

Some entries whose results are on file:
- molecule: "NC1=N[C@@](c2cc(/C=C(\\F)c3ccc(Cl)cn3)ccc2F)(C(F)F)[C@H]2C[C@H]2O1 [Example 101]"
  discrete label: "not fulfilled"
- molecule: "NC1=N[C@@](c2cc(/C=C(\\F)c3ccc(Br)cn3)ccc2F)(C(F)F)[C@H]2C[C@H]2O1 [Example 100]"
  discrete label: "fulfilled"
- molecule: "C[C@]1(c2cc(/C=C(\\F)c3ccc(C#N)cn3)ccc2F)N=C(N)OC[C@@H]1OCC(F)(F)F [Example 109]"
  discrete label: "not fulfilled"
- molecule: "C#CCOc1cnc(/C(F)=C/c2ccc(F)c([C@@]3(C)N=C(N)OC[C@@H]3OCC(F)(F)F)c2)cn1 [Example 111]"
  discrete label: "not fulfilled"
- molecule: "C[C@@]1(c2cc(/C=C(\\F)c3cnc(OCC(F)(F)C(F)F)cn3)ccc2F)CO[C@@](C)(C(F)(F)F)C(N)=N1 [Example 106]"
  discrete label: "fulfilled"
- molecule: "C[C@]1(c2cc(/C=C(\\F)c3cnc(C#N)cn3)ccc2F)N=C(N)OC[C@@H]1OCC(F)(F)F [Example 112]"
  discrete label: "not fulfilled"
- molecule: "CC#CCOc1cnc(/C(F)=C/c2ccc(F)c([C@@]3(C)N=C(N)OC[C@@H]3OCC(F)(F)F)c2)cn1 [Example 113]"
  discrete label: "not fulfilled"
- molecule: "C[C@@]1(c2nc(/C=C(\\F)c3ccc(C#N)cn3)ccc2F)CO[C@@](C)(C(F)(F)F)C(N)=N1 [Example 117]"
  discrete label: "fulfilled"
- molecule: "C[C@]1(c2cc(/C=C(\\F)c3ccc(C#N)cn3)ccc2F)N=C(N)OCC1(F)F [Example 114]"
  discrete label: "not fulfilled"
- molecule: "C[C@@]1(c2cc(/C=C(\\F)c3cnc(Cl)cn3)ccc2F)CO[C@@](C)(C(F)(F)F)C(N)=N1 [Example 108]"
  discrete label: "fulfilled"

Strictly below 200 µM: is that where IC50 of C#CCOc1cnc(/C(F)=C/c2ccc(F)c([C@@]3(C)N=C(N)OCC3(F)F)c2)cn1 [Example 115] sits?
fulfilled

Strictly below 200 µM: is that where IC50 of N#Cc1ccc(/C(F)=C/c2ccc(F)c([C@@]3(C(F)F)N=C(N)O[C@@H]4C[C@@H]43)c2)nc1 [Example 102] sits?
not fulfilled

Strictly below 200 µM: is that where IC50 of C[C@]1(c2nc(/C=C(\F)c3ccc(C#N)cn3)ccc2F)N=C(N)OCC1(F)F [Example 116] sits?
not fulfilled

Strictly below 200 µM: is that where IC50 of C[C@]1(c2cc(/C=C(\F)c3cnc(Cl)cn3)ccc2F)N=C(N)OC[C@@H]1OCC(F)(F)F [Example 110] sits?
not fulfilled
